B1: MMP1 (parent)
chain: YTPDLPRADVDHAIEKAFQLWSNV

# Variants of: B1
# Assay Method Text: protein stability index of a GFP-peptide fusion (GPS, HEK-293T) (PSI 1-6); higher = more stable;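 also: lentivirally expressed fusions sorted by FACS into six bins by GFP to DsRed ratio, PSI derived from sequencing read proportions per bin multiplied by bin number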
# Particulars: c terminus: a fixed tail appended
Measured Property: protein stability index

> print(dat)
    mutant.label  observed
 1           A8T      1.79
 2           Y1P      3.47
 3          N23I      2.05
 4          I14Y      2.17
 5          I14E      1.36
 6          H12D      2.09
 7           P6A      1.56
 8           R7M      2.25
 9          Q19H      1.97
10          F18M      2.04
11           A8D      1.53
12          V24T      2.29
13           L5Q      2.07
14          H12I         2
15          N23A      2.05
16           A8K      2.58
17           P3M      1.88
18          Q19L      1.05
19           P3W      2.87
20           A8V      1.64
21          V24S      1.66
22          I14W      1.46
23           A8G      2.83
24           D9V      2.62
25           D9I      1.78
26           R7T      1.88
27          S22N      1.85
28           P3A      1.79
29          N23M      2.02
30           P3G      1.62
31           A8F      2.94
32           A8H      1.75
33          F18S      1.67
34          H12R      1.64
35           D9P      1.54
36           L5S      2.05
37          H12K      1.79
38           A8R      1.67
39          E15N      1.97
40          W21D      3.88
41          K16C      2.02
42          N23W      1.97
43          A13V      2.79
44           R7S      1.75
45          A17R      1.63
46          S22T      1.59
